Target: human PSMA on PSMA-expressing cells (human, UniProt Q04609 1-750)
Sequence (Q04609 whole entry): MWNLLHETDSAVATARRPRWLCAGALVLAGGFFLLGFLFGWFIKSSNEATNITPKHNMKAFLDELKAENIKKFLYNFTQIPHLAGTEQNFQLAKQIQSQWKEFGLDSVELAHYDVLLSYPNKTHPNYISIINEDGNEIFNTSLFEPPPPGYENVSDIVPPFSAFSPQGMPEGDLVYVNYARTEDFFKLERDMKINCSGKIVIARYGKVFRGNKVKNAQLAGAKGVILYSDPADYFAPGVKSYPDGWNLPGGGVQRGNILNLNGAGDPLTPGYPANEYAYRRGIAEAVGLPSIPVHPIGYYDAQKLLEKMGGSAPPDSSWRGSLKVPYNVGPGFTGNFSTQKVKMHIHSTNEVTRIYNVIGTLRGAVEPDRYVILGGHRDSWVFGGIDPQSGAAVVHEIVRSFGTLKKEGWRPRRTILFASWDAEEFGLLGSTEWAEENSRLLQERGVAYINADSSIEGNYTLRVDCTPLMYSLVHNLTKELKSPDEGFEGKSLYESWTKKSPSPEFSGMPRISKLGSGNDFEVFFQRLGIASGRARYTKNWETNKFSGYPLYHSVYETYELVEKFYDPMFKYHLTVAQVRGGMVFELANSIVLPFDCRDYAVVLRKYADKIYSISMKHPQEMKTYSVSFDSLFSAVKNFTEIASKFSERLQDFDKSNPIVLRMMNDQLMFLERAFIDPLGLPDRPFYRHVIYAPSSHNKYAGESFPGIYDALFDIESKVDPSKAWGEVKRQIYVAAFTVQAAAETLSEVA
Experiment: cell-based or functional assay
Exam item: assign fulfilled to entries whose TrampC2.PSMA Cell depletion EC50 is below 4 pM and not fulfilled to entries at or above 4 pM. Note that a value of exactly 4 pM receives not fulfilled.

Would you please look over these solved cases?
BINDER	CATEGORY_LABEL
BSPSMA/CD3-003 (bispecific antibody, IgG4, V domains shown, modified (chimeric) IgG4 Fc domain; also called PSMA-VH-11810 x CD3-VH-G) VH 1: QVQLVESGGGVVQPGRSLRLSCAASGFTFSSYGMHWVRQAPGKGLEWVAVISYAGNNKYYADSVKGRFTVSRDNSKKTLYLQMNSLRSEDTAVYYCAKDSYYDFLTDPDVLDIWGQGTMVTVSS VH 2: EVQLVESGGGLVQPGRSLRLSCAASGFTFDDYSMHWVRQAPGKGLEWVSGISWNSGSKGYADSVKGRFTISRDNAKNSLYLQMNSLRAEDTALYYCAKYGSGYGKFYHYGLDVWGQGTTVTVSS VL: DIQMTQSPSSLSASVGDSVTITCRASQSINNYLNWYQQKPGKAPKLLIYTASSLLSGVPSRFSGSGSGTDFTLTISGLHPEDFATYFCQQSFSTPPITFGQGTRLDIK	not fulfilled
BSPSMA/CD3-1100 (bispecific antibody, IgG4, V domains shown, modified (chimeric) IgG4 Fc domain; also called PSMA-VH-11810 x CD3-VH-G11) VH 1: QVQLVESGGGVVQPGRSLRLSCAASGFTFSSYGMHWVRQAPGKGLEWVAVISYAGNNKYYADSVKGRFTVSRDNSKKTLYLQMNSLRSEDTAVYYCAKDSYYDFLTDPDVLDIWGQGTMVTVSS VH 2: EVQLVESGGGLVQPGRSLRLSCAASGFTFDDYSMHWVRQAPGKGLEWVSGISWNSGSKGYADSVKGRFTISRDNAKNSLYLQMNSLRAEDTALYYCAKYGSGYGKFYHYGMDVWGQGTTVTVSS VL: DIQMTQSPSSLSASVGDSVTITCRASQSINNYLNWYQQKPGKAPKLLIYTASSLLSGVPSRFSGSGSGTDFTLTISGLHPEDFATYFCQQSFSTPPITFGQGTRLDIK	fulfilled
BSPSMA/CD3-900 (bispecific antibody, IgG4, V domains shown, modified (chimeric) IgG4 Fc domain; also called PSMA-VH-11810 x CD3-VH-G9) VH 1: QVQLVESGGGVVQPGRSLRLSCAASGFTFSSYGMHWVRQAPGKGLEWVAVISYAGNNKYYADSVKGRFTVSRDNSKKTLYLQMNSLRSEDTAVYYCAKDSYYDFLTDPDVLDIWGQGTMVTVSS VH 2: EVQLVESGGGLVQPGRSLRLSCAASGFTFDDYSMHWVRQAPGKGLEWVSGISWNSGSKGYADSVKGRFTISRDNAKNSLYLQMNSLRAEDTALYYCAKDGSGYGKFYHYGLDVWGQGTTVTVSS VL: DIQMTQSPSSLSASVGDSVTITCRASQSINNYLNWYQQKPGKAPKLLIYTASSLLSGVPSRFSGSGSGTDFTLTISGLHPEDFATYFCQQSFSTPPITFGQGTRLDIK	fulfilled

[Q] Record BSPSMA/CD3-004 (bispecific antibody, IgG4, V domains shown, modified (chimeric) IgG4 Fc domain; also called PSMA-VH-11810 x CD3-VH-G5) VH 1: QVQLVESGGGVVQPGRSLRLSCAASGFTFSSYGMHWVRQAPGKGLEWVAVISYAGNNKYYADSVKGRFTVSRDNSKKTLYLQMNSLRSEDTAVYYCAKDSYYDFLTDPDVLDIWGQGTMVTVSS VH 2: EVQLVESGGGLVQPGRSLRLSCAASGFTFDDYSMHWVRQAPGKGLEWVSGISWNSGSIGYADSVKGRFTISRDNAKNSLYLQMNSLRAEDTALYYCAKDGSGYGKFYYYGMDVWGQGTTVTVSS VL: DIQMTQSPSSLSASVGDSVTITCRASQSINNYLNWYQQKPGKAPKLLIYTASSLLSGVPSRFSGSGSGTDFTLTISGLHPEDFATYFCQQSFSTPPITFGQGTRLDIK : is its TrampC2.PSMA Cell depletion EC50 strictly below 4 pM?
[A] not fulfilled

[Q] Given BSPSMA/CD3-1000 (bispecific antibody, IgG4, V domains shown, modified (chimeric) IgG4 Fc domain; also called PSMA-VH-11810 x CD3-VH-G10) VH 1: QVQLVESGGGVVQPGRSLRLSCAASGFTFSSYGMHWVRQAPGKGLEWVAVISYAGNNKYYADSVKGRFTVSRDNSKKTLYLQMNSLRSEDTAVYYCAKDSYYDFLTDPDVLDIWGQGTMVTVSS VH 2: EVQLVESGGGLVQPGRSLRLSCAASGFTFDDYSMHWVRQAPGKGLEWVSGISWNSGSKGYADSVKGRFTISRDNAKNSLYLQMNSLRAEDTALYYCAKYGSGYGKFYYYGLDVWGQGTTVTVSS VL: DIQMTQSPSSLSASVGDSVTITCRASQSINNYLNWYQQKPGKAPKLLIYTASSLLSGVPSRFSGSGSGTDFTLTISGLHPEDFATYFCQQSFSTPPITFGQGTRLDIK , is recorded TrampC2.PSMA Cell depletion EC50 strictly lower than 4 pM?
[A] not fulfilled

[Q] Does the reported TrampC2.PSMA Cell depletion EC50 of BSPSMA/CD3-800 (bispecific antibody, IgG4, V domains shown, modified (chimeric) IgG4 Fc domain; also called PSMA-VH-11810 x CD3-VH-G8) VH 1: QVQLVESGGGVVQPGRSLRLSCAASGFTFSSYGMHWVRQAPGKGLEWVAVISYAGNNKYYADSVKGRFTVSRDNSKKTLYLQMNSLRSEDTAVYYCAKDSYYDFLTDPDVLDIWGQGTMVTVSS VH 2: EVQLVESGGGLVQPGRSLRLSCAASGFTFDDYSMHWVRQAPGKGLEWVSGISWNSGSIGYADSVKGRFTISRDNAKNSLYLQMNSLRAEDTALYYCAKYGSGYGKFYHYGLDVWGQGTTVTVSS VL: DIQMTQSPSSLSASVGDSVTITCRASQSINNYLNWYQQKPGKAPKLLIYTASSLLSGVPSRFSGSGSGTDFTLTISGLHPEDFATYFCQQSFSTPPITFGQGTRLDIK stay below 4 pM?
[A] not fulfilled
